Taken from PubChem BioAssay (NCATS).

procedure text: Cell Viability - LYMP2-011 (AID 969);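 also: cells exposed to compound for 24 hours; nearly all actives have a fitted effect of over 60% in size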; also: potency is read from the fitted curve at half-maximal effect
assay conditions: LYMP2-011 lymphoblastoid cells viability; series mostly up to 92.2 µM
Results filed as inconclusive are left out. Activity calls are given as the source filed them. Calls follow the shape of the dose curve; as a rule, active = well fitted cell-killing curve with a large enough effect; inconclusive = small, poorly fitted or top-dose-only effect; inactive = flat fitted curve, though single readings scatter.
metric: Potency

// known answers, use as guide
O=c1cc(-c2ccccc2)oc2ccccc12 : inactive
C#C[C@]1(O)CC[C@H]2[C@@H]3CCc4cc(O)ccc4[C@H]3CC[C@@]21C : inactive
S=c1[nH]c2ccccc2s1 : inactive
CCCCCCCCCCCCCCCCCC(=O)O : inactive
COc1cc(/C=C/C(=O)CC(=O)/C=C/c2ccc(O)c(OC)c2)ccc1O : 31.6 µM (active)
Nc1ccc(O)c(C(=O)O)c1 : inactive
CN1CCC[C@H]1c1cccnc1 : inactive
Nc1nc2ccc([N+](=O)[O-])cc2s1 : inactive
CC(C)NCC(O)COc1cccc2ccccc12 (stereo not drawn) : inactive
O=C(O)c1cc(O)c(O)c(O)c1 : inactive

Input: So what's the measured Potency for this one? CN(C)CCC(c1ccc(Cl)cc1)c1ccccn1 (stereo not drawn)
Output: inactive

Input: So what's the measured Potency for this one? CN(C)c1ccc(C(=C2C=CC(=[N+](C)C)C=C2)c2ccccc2)cc1
Output: 0.316 µM (active)

Input: So what's the measured Potency for this one? COc1cc(CNC(=O)CCCC/C=C/C(C)C)ccc1O
Output: inactive

* * *

procedure text: Cellular Toxicity (caspase-3) H-4-II-E (AID 663);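 also: cells exposed to compound for 16 hr before readout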
assay conditions: H-4-II-E rat hepatoma, scaled: DMSO 0%, 100 µM tamoxifen 100%; at 92.2 µM (top of the series)
Records with an inconclusive call do not appear. The source made the active and inactive calls. Calls come from the whole dose curve; as a rule, active = well fitted activation curve with a large enough effect; inconclusive = small, poorly fitted or top-dose-only effect; inactive = flat fitted curve, though single readings scatter.
Entry note: the call must match one of T for active, F for inactive

Input: Assay outcome for COc1cc(/C=C/C(=O)CC(=O)/C=C/c2ccc(O)c(OC)c2)ccc1O : what was it?
Output: F

Input: Assay outcome for O=c1cc(-c2ccccc2)oc2ccccc12 : what was it?
Output: F

Input: Assay outcome for C#C[C@]1(O)CC[C@H]2[C@@H]3CCc4cc(O)ccc4[C@H]3CC[C@@]21C : what was it?
Output: F

Input: Assay outcome for COc1cc(CNC(=O)CCCC/C=C/C(C)C)ccc1O : what was it?
Output: F

Input: Assay outcome for O=C1CN(/N=C/c2ccc([N+](=O)[O-])o2)C(=O)N1 : what was it?
Output: F

Input: Assay outcome for Nc1ccc(O)c(C(=O)O)c1 : what was it?
Output: F

Input: Assay outcome for NCCO : what was it?
Output: F

Input: Assay outcome for O=C(O)/C=C\C(=O)O : what was it?
Output: F

Input: Assay outcome for S=c1[nH]c2ccccc2s1 : what was it?
Output: F

Input: Assay outcome for Nc1ccc(O)c([N+](=O)[O-])c1 : what was it?
Output: F

Input: Assay outcome for N=C1N=C(N)c2cc3ccccc3cc21 : what was it?
Output: T

Input: Assay outcome for CC(C)NCC(O)COc1cccc2ccccc12 (centres undefined) : what was it?
Output: F

Input: Assay outcome for CN(C)CCC(c1ccc(Cl)cc1)c1ccccn1 (centres undefined) : what was it?
Output: F

Input: Assay outcome for CN(C)c1ccc(N=NS(=O)(=O)O)cc1 : what was it?
Output: F

* * *

procedure text: S16 Schwann cell viability assay (CellTiter-Glo assay) (AID 624031); also: nearly all actives have a fitted effect of over 70% in size
assay conditions: S16 rat Schwann cells viability, 24 h; series mostly up to 57.5 µM
Inconclusive results are not listed. Activity calls are given as the source filed them. Calls follow the shape of the dose curve; as a rule, active = well fitted cell-killing curve with a large enough effect; inconclusive = small, poorly fitted or top-dose-only effect, or effect the other way; inactive = flat fitted curve, though single readings scatter. Where a SMILES comes first, the peptide text is derived from it. [ ]: non-standard residue; d: D form. pGlu = O=C1CC[C@@H](C(=O)O)N1; Thz = O=C(O)[C@@H]1CSCN1
Entry note: the call must match one of active, inactive

Input: Assay outcome for Nc1ccc(O)c(C(=O)O)c1 : what was it?
Output: inactive

Input: Assay outcome for C#C[C@]1(O)CC[C@H]2[C@@H]3CCc4cc(O)ccc4[C@H]3CC[C@@]21C : what was it?
Output: inactive

Input: Assay outcome for CCOC(=O)c1ccccc1O : what was it?
Output: inactive

Input: Assay outcome for CCCCCCCCCCCCCCCCCC(=O)O : what was it?
Output: inactive

Input: Assay outcome for CC(N)C(=O)OC(C)(C)Cc1ccc(Cl)cc1 (stereo not drawn) : what was it?
Output: inactive

Input: Assay outcome for C=CCCCCCCCCC(=O)O : what was it?
Output: inactive

Input: Assay outcome for O=C1CC[C@@H](C(=O)N2CSC[C@H]2C(=O)O)N1 ([pGlu]-[Thz]-OH) : what was it?
Output: inactive

Input: Assay outcome for O=C(/C=C/c1ccccc1)NCCO : what was it?
Output: inactive

Input: Assay outcome for Cc1cc(O)c2ccccc2c1O : what was it?
Output: active

Input: Assay outcome for COc1cc2c3cc1Oc1cc(ccc1O)C[C@@H]1c4c(cc(OC)c(O)c4Oc4ccc(cc4)C[C@@H]3N(C)CC2)CC[N+]1(C)C : what was it?
Output: inactive

Input: Assay outcome for CC1OC1P(=O)(O)O (stereo not drawn) : what was it?
Output: inactive

Input: Assay outcome for COc1cc(CNC(=O)CCCC/C=C/C(C)C)ccc1O : what was it?
Output: inactive

Input: Assay outcome for Nc1c(CC(=O)O)cccc1C(=O)c1ccc(Br)cc1 : what was it?
Output: inactive
